Test system: primary human hepatic stellate cells (donor 1)
Assay: scaled lipid accumulation score (0 = DMSO-like, 1 = nortriptyline-like); higher = stronger HSC inactivation (lipid re-accumulation), active = hit call of the paper
Settings: library stock concentration: 10 mM; 48 h
Where a name gives a salt, the structure may show the parent alone. The whole screen tested about 5,800 compounds, of which about 620 (11%) showed activity.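 Rule for the calls: active = score above a cut-off or among the top three wells of a plate; in these data no inactive exceeds 0.85.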 The sample holds actives, similar compounds and a random draw of the others, so the mix is not that of the screen.
Outcomes: T = active, F = inactive

- CCN(CC)CC#CCOC(=O)C(O)(c1ccccc1)C1CCCCC1.Cl (centres undefined) [Oxybutynin Chloride]: T
- CC(C(O)c1ccc(O)cc1)N1CCC(Cc2ccccc2)CC1 (centres undefined) [Ifenprodil Tartrate]: F
- CCN(CC)CC#CCOC(=O)C(O)(c1ccccc1)C1CCCCC1 (centres undefined) [Oxybutynin chloride]: F
- CCCNCC(O)COc1ccccc1C(=O)CCc1ccccc1 (centres undefined) [Rythmol]: F
- CN1CCN2c3ncccc3Cc3ccccc3C2C1 (centres undefined): F
- CCC(=O)Nc1cccc(Oc2nc(Nc3ccc(N4CCN(C)CC4)cc3OC)ncc2Cl)c1: T
- CCN(CC)CCCN(c1ccccc1)C1Cc2ccccc2C1 [Aprindine hydrochloride]: F
- CO/N=C(\C(=O)N[C@@H]1C(=O)N2C(C(=O)O)=C(CSc3nc(=O)c(O)nn3C)CS[C@H]12)c1csc(N)n1 [Ceftriaxone sodium]: F
- CNCC[C@H](Oc1cccc2ccccc12)c1cccs1 [Duloxetine HCl]: F
- Cc1onc(-c2ccccc2)c1-c1ccc(S(N)(=O)=O)cc1: F
- O=C(O)COc1ccc(OCCNC[C@H](O)COc2ccccc2)cc1 [ICI 215,001 hydrochloride]: F
- O=C(c1ccc(F)cc1)C1CCN(CCCCc2ccccc2)CC1 [4-(4-Fluorobenzoyl)-1-(4-phenylbutyl)-piperidine oxalate]: F
- CC1CCN(CCCC(=O)c2ccc(F)cc2)CC1 [Metylperon]: F
- COCCNC(=O)COc1ccc(OCCNC[C@H](O)COc2ccccc2)cc1 [ZD 7114 hydrochloride]: F

* * *

Test system: primary human hepatic stellate cells (donor 1)
Assay: scaled lipid accumulation score (0 = DMSO-like, 1 = nortriptyline-like); higher = stronger HSC inactivation (lipid re-accumulation), active = hit call of the paper
Conditions: library stock concentration: 10 mM; 48 h
In all, about 5,800 compounds went through this assay and about 620 (11%) showed activity. The sample as a whole holds a higher share of actives than the screen did.
recorded endpoint: scaled lipid accumulation score

• COc1cc(NC(=O)c2ccccn2)ccc1Cl = ≤ 0 (inactive)
• COCCOc1nc(-c2ccc(Cl)c(Cl)c2)n(-c2ccc(NC(=O)CCl)cc2)n1 [MI-2 (MALT1 inhibitor)] = 0.62 (inactive)
• Cc1[nH]c2ccccc2c1CCNCc1ccc(/C=C/C(=O)NO)cc1 [Panobinostat (LBH589)] = 0.587 (inactive)

* * *

Tested on: primary human hepatic stellate cells (donor 1)
Assay: scaled lipid accumulation score (0 = DMSO-like, 1 = nortriptyline-like); higher = stronger HSC inactivation (lipid re-accumulation), active = hit call of the paper
Conditions: library stock concentration: 10 mM; 48 h
Where a name gives a salt, the structure may show the parent alone. Among all 5,800 compounds or so, about 620 (11%) showed activity. The sample as a whole holds a higher share of actives than the screen did.
recorded endpoint: scaled lipid accumulation score

* c1ccc(-c2nn3c(c2-c2ccnc4cc(OCCN5CCOCC5)ccc24)CCC3)nc1 | ≤ -0.001 (inactive)
* COc1cc(N)c(Cl)cc1C(=O)CCC1CCN(CCNS(C)(=O)=O)CC1 | ≤ 0 (inactive)
* CN(CC[C@@H](Oc1ccc(C(F)(F)F)cc1)c1ccccc1)CC(=O)[O-].[Li+] | 0.149 (inactive)
* CN1[C@@H]2CC[C@H]1C[C@@H](OC(c1ccccc1)c1ccccc1)C2 | 0.38 (inactive)
* COc1cc(COc2cc(N)c(Cl)cc2C(=O)CCC2CCN(CCNS(C)(=O)=O)CC2)cc(OC)c1.Cl | 1.06 (active)
* O=C(Nc1ccccc1-c1cn2c(CN3CCNCC3)csc2n1)c1cnc2ccccc2n1 | 0.384 (inactive)
* CC[C@H]1OC(=O)[C@H](C)C(=O)[C@H](C)[C@@H](O[C@@H]2O[C@H](C)C[C@H](N(C)C)[C@H]2O)[C@](C)(OC)C[C@@H](C)C(=O)[C@H](C)[C@H]2N(CCCCn3cnc(-c4cccnc4)c3)C(=O)O[C@]12C | 0.448 (inactive)
* CCN(CC)CCOc1ccc(Cc2ccccc2)cc1.O=C(O)/C=C/C(=O)O [DPPE fumarate] | 0.879 (active)
* COc1cccc2c1[C@@H]1CN(CCCCn3c(=O)[nH]c4c(sc5ncc(-c6ccccc6)nc54)c3=O)C[C@@H]1CO2.Cl [Fiduxosin hydrochloride] | 0.863 (active)
* CCCCCNC(=N)N/N=C/c1c[nH]c2ccc(OC)cc12 [Tegaserod maleate] | ≤ -0.027 (inactive)
* O=C(O)CCC/C=C\C[C@@H]1[C@@H](/C=C/[C@H](O)C2Cc3ccccc3C2)[C@@H](F)C[C@@H]1O | ≤ -0.07 (inactive)
* CCN(CC)CCOC(=O)C(c1ccccc1)c1ccccc1 [Adiphenine HCl] | ≤ 0 (inactive)
* c1ccc(CNc2nc(NCc3ccccc3)c3ccccc3n2)cc1 | 0.074 (inactive)
* CCN(CC)CCOC(=O)C(c1ccccc1)c1ccccc1 [Adiphenine hydrochloride] | 0.111 (inactive)
* O=C1NCN(c2ccccc2)C12CCN(CCCC(c1ccc(F)cc1)c1ccc(F)cc1)CC2 | 1.02 (active)
* O=C(OCCN1CCCCC1)c1c[nH]c2ccccc12 | 0.289 (inactive)
* CNCC[C@H](Oc1ccc(C(F)(F)F)cc1)c1ccccc1 [S-(+)-Fluoxetine hydrochloride] | 0.403 (inactive)
* c1cncc(CN2CCC(n3ncc4c(N5CCOCC5)nc(-c5ccc6[nH]ccc6c5)nc43)CC2)c1 | 1.19 (active)
* c1cc(-c2cnn3cc(-c4ccc(OCCN5CCCCC5)cc4)cnc23)ccn1 | 0.469 (inactive)
* C(=C/CCNC)(/c1c2cccc1)\c3c(cccc3)CC2.Cl [Nortriptyline hydrochloride] | 1.04 (active)
* COC(=O)Nc1ccc(-c2nc(N3CCOCC3)c3cnn(C4CCN(C(=O)OC)CC4)c3n2)cc1 | ≤ 0 (inactive)
* CCNC(=O)N1CCN(CCCC(c2ccc(F)cc2)c2ccc(F)cc2)CC1 [Amperozide hydrochloride] | 0.661 (inactive)
* c1cc(OCCN2CCCCC2)cc(-c2n[nH]c3ccc(-c4ncn[nH]4)cc23)c1 | 1.72 (active)
* COc1cc2ncnc(-n3nc(-c4ccccn4)nc3N)c2cc1OC | 0.046 (inactive)
* Cl.c1cc(OCCN2CCCCC2)cc(-c2n[nH]c3ccc(-c4nc[nH]n4)cc23)c1 | 1.28 (active)
